target: Fibroblast growth factor receptor 3 (Homo sapiens, UniProt P22607, K650E)
Sequence (P22607 23-806 K650E limits assumed): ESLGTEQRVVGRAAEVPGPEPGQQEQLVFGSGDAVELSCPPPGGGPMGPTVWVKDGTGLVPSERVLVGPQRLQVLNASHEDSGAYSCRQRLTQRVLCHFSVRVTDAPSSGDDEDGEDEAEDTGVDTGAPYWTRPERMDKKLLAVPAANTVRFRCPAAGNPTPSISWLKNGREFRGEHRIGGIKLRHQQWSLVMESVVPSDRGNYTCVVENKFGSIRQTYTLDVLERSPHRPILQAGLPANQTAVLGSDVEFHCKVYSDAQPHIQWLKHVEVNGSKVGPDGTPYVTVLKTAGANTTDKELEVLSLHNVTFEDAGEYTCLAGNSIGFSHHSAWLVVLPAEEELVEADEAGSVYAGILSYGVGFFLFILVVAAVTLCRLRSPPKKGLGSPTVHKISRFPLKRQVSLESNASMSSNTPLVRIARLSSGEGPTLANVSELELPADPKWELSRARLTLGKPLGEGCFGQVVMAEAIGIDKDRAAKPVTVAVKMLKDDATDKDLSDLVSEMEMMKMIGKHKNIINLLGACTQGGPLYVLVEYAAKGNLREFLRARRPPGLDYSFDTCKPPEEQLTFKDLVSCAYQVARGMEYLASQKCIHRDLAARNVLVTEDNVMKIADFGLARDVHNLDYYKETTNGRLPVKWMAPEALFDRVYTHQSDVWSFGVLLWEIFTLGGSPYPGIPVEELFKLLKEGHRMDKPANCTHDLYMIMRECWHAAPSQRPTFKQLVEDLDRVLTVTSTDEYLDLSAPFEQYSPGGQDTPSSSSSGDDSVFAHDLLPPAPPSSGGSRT
observed property: IC50

Entry COc1cc(OC)c(Cl)c(Nc2ncccc2-c2ncnc(Nc3cnn(C4CCNCC4)c3)n2)c1Cl — recorded IC50 = < 0.5 nM

Form: molecule = CCN1CCN(c2ccc(Nc3cc(-c4cccnc4Nc4c(Cl)c(OC)cc(OC)c4Cl)ncn3)cc2)CC1 ; IC50 = 8.55 nM

Kindly note the recorded IC50 for CCN1CCN(c2cccc(Nc3ncnc(-c4cccnc4Nc4c(Cl)c(OC)cc(OC)c4Cl)n3)c2)CC1 , which is < 0.5 nM

Short answer for COc1cc(OC)c(Cl)c(Nc2ncccc2-c2ncnc(Nc3ccc(N4C[C@@H](C)N[C@@H](C)C4)cc3)n2)c1Cl : IC50 was < 0.5 nM

Value of IC50 reported for the molecule COc1cc(OC)c(Cl)c(Nc2ncccc2-c2ncnc(Nc3cnn(C4CCN(C(C)C)CC4)c3)n2)c1Cl is < 0.5 nM

###

system: Fibroblast growth factor receptor 2 (Homo sapiens), P21802 [V564F]; assay: Inhibition of FGFR2 V564F mutant (unknown origin) at 10 uM by radiometric kinase activity assay relative to control
Sequence (P21802 whole entry V564F): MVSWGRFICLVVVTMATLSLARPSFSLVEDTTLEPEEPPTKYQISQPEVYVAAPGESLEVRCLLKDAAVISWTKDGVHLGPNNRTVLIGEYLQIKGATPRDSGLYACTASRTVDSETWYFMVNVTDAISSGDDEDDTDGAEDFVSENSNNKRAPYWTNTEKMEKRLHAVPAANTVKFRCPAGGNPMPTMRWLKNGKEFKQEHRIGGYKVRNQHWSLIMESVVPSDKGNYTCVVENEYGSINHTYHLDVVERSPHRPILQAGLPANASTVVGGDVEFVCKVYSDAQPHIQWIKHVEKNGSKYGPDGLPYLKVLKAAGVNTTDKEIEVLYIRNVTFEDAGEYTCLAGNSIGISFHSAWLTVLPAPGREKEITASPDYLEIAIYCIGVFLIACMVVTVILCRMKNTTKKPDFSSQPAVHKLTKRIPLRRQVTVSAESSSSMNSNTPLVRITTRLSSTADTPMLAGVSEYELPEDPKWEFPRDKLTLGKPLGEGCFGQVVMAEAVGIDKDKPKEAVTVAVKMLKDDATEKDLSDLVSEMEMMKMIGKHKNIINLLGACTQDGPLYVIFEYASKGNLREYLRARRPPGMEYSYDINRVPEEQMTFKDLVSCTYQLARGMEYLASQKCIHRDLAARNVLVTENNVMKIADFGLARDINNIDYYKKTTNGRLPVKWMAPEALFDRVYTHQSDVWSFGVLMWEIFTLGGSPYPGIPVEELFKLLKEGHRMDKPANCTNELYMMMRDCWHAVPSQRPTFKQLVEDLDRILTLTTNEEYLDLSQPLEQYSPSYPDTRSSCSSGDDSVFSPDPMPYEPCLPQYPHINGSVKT
observed property: inhibition

# inhibition of COc1cccc(Nc2ncnc(-c3cccnc3Nc3c(Cl)c(OC)cc(OC)c3Cl)n2)c1 = < 50%

Memo: COc1cc(OC)c(Cl)c(Nc2ncccc2-c2ncnc(Nc3ccc(N4CCOCC4)nc3OC)n2)c1Cl , reported inhibition: < 50%

The compound listed as COc1cc(OC)c(Cl)c(Nc2ncccc2-c2ncnc(Nc3ccc(N4CCOCC4)nc3)n2)c1Cl has a reported inhibition of < 50%

# compound COc1cc(OC)c(Cl)c(Nc2ncccc2-c2ncnc(Nc3ccccc3)n2)c1Cl ; its inhibition = < 50%

Data point: COc1ccccc1Nc1ncnc(-c2cccnc2Nc2c(Cl)c(OC)cc(OC)c2Cl)n1 ; inhibition = < 50%

Reported inhibition ( COc1cc(OC)c(Cl)c(Nc2ncccc2-c2ncnc(Nc3ccc(N4CCOCC4)cc3)n2)c1Cl ) = < 50%

Lab note: CCN1CCN(c2ccc(Nc3cc(N(C)C(=O)Nc4c(Cl)c(OC)cc(OC)c4Cl)ncn3)cc2)CC1 gave inhibition of < 50%

In plain terms, COc1cc(OC)c(Cl)c(Nc2ncccc2-c2ncnc(NCCN(C)C)n2)c1Cl has a documented inhibition of < 50%

For COc1cc(OC)c(Cl)c(Nc2ncccc2-c2ncnc(N)n2)c1Cl the compound record lists inhibition as < 50%

For record COc1cc(OC)c(Cl)c(Nc2ncccc2-c2ncnc(Nc3ccc(N(C)C)cc3)n2)c1Cl the listed inhibition is < 50%

In plain terms, COc1cc(N2CCOCC2)ccc1Nc1ncnc(-c2cccnc2Nc2c(Cl)c(OC)cc(OC)c2Cl)n1 has a documented inhibition of < 50%

###

Can you tell me remaining at 0.5 h, 1 µM for the items I'm about to list?
experiment: Stability in human liver microsomes assessed as parent compound remaining at 1 uM incubated for 30 mins; format: ADME, Microsome; conditions: read-out: Stability
Field format: number, assumed %, no unit text.

remaining at 0.5 h, 1 µM reported for this compound CCN1CCN(c2ccc(Nc3cc(N(C)C(=O)Nc4c(Cl)c(OC)cc(OC)c4Cl)ncn3)cc2)CC1 : 77

// field: remaining at 0.5 h, 1 µM; key: COc1cc(OC)c(Cl)c(Nc2ncccc2-c2ncnc(Nc3ccc(N4C[C@@H](C)N[C@@H](C)C4)cc3)n2)c1Cl ; value = 10.2

Recorded result, COc1cc(OC)c(Cl)c(Nc2ncccc2-c2ncnc(Nc3cnn(C4CCN(C(C)C)CC4)c3)n2)c1Cl , remaining at 0.5 h, 1 µM: 21.8

For record COc1cc(OC)c(Cl)c(Nc2ncccc2-c2ncnc(Nc3cnn(C4CCNCC4)c3)n2)c1Cl the listed remaining at 0.5 h, 1 µM is 62.6

###

molecular target: UniProt P10635; assay: Inhibition of CYP2D6 (unknown origin) assessed as remaining activity at 10 uM relative to control; assay type: ADME; conditions: read-out: Activity
Sequence (P10635 whole entry): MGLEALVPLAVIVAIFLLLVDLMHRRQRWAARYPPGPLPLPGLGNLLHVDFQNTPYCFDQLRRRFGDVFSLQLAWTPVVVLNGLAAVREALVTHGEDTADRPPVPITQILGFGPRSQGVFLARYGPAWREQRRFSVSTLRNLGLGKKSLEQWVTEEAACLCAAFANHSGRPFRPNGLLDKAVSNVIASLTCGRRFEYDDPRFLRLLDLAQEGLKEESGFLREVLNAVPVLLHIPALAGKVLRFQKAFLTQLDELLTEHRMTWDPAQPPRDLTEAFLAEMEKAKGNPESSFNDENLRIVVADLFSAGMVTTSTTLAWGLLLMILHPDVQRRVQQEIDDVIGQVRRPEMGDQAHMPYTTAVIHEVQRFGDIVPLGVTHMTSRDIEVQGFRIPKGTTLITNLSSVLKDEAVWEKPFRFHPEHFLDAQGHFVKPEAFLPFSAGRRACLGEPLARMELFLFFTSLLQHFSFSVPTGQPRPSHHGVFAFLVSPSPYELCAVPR
Please respond with reported activity at 10 µM for every item in the list.

The molecule identified as COc1cc(OC)c(Cl)c(Nc2ncccc2-c2ncnc(Nc3ccc(N4C[C@@H](C)N[C@@H](C)C4)cc3)n2)c1Cl registered its activity at 10 µM at 77.3%

According to the records, this molecule CCN1CCN(c2ccc(Nc3cc(N(C)C(=O)Nc4c(Cl)c(OC)cc(OC)c4Cl)ncn3)cc2)CC1 displays activity at 10 µM of 94.9%

Reported activity at 10 µM ( COc1cc(OC)c(Cl)c(Nc2ncccc2-c2ncnc(Nc3cnn(C4CCNCC4)c3)n2)c1Cl ) = > 100%

Consider COc1cc(OC)c(Cl)c(Nc2ncccc2-c2ncnc(Nc3cnn(C4CCN(C(C)C)CC4)c3)n2)c1Cl . Its measured activity at 10 µM is 81%

###

Heads up, these compounds all have IC50 values measured for Fibroblast growth factor receptor 3 (Homo sapiens).
Note: unit nM is implicit; provide only the numeric part.

Record COc1cc(OC)c(Cl)c(Nc2ncccc2-c2ncnc(Nc3cnn(C4CCOCC4)c3)n2)c1Cl , field IC50: 2.51

compound COc1cc(N2CCN(C)CC2)ccc1Nc1ncnc(-c2cccnc2Nc2c(Cl)c(OC)cc(OC)c2Cl)n1 , IC50 observed: 20.3

The compound identified as COc1cc(OC)c(Cl)c(Nc2ncccc2-c2ncnc(Nc3cnn(C)c3)n2)c1Cl registered its IC50 at 2.41

Reported IC50 ( C=CCn1cc(Nc2ncnc(-c3cccnc3Nc3c(Cl)c(OC)cc(OC)c3Cl)n2)cn1 ) = 1.41

According to the records, this compound COc1cccc(Nc2ncnc(-c3cccnc3Nc3c(Cl)c(OC)cc(OC)c3Cl)n2)c1 displays IC50 of 9.81

Item: COc1cc(OC)c(Cl)c(Nc2ncccc2-c2ncnc(Nc3cnn(C4CCNCC4)c3)n2)c1Cl | IC50: 0.98

Please fill in: IC50 reported for COc1cc(OC)c(Cl)c(Nc2ncccc2-c2ncnc(Nc3ccc(N4C[C@@H](C)N[C@@H](C)C4)cc3)n2)c1Cl = 0.6

Entry COc1cc(OC)c(Cl)c(Nc2ncccc2-c2ncnc(Nc3ccc(N4CCC(O)CC4)cc3)n2)c1Cl , IC50 reported as 8.29

###

assay: Stability in dog liver microsomes assessed as parent compound remaining at 1 uM incubated for 30 mins; format: ADME, Canis lupus familiaris, Microsome; details: read-out: Stability
So I've got a bunch of compounds here, and I need their remaining at 0.5 h, 1 µM values.
Numeric answer only, unit % assumed.

The measured remaining at 0.5 h, 1 µM associated with COc1cc(OC)c(Cl)c(Nc2ncccc2-c2ncnc(Nc3ccc(N4C[C@@H](C)N[C@@H](C)C4)cc3)n2)c1Cl reads 19

For record COc1cc(OC)c(Cl)c(Nc2ncccc2-c2ncnc(Nc3cnn(C4CCNCC4)c3)n2)c1Cl the listed remaining at 0.5 h, 1 µM is 66.9

compound CCN1CCN(c2ccc(Nc3cc(N(C)C(=O)Nc4c(Cl)c(OC)cc(OC)c4Cl)ncn3)cc2)CC1 , remaining at 0.5 h, 1 µM observed: 8.1

###

target: Fibroblast growth factor receptor 3 (Homo sapiens, UniProt P22607, V555M)
Sequence (P22607 23-806 V555M limits assumed): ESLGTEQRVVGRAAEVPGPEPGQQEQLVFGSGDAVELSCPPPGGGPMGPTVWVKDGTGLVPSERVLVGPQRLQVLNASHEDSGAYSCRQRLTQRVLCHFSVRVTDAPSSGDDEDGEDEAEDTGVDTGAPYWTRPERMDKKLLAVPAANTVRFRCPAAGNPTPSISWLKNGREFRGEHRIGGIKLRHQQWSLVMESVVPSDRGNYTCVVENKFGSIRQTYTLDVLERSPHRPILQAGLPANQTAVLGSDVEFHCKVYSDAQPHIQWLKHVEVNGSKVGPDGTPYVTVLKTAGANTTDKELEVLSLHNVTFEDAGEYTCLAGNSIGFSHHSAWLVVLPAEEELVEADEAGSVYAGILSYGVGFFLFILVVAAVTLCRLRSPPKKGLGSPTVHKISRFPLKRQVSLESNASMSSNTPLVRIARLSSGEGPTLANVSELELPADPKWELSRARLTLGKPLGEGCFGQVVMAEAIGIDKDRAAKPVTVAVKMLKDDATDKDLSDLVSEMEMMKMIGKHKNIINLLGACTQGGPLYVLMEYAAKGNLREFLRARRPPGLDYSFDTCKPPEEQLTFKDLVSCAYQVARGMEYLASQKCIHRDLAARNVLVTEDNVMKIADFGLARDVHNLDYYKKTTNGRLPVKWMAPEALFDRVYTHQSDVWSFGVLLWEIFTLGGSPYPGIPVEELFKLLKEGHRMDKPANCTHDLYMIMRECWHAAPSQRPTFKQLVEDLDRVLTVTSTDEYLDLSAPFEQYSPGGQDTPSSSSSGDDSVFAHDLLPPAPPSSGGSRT
IC50 strictly under 300 nM means true; at 300 nM or over means false.

Q: Hello, is IC50 of the following molecule strictly smaller than 300 nM? COc1cc(OC)c(Cl)c(Nc2ncccc2-c2ncnc(Nc3cnn(C)c3)n2)c1Cl
Ans: true

Q: Lab log: compare recorded IC50 with 300 nM; is it strictly lower for COc1cc(OC)c(Cl)c(Nc2ncccc2-c2ncnc(Nc3cnn(C4CCNCC4)c3)n2)c1Cl ?
Ans: true

Q: A record lists C=CCn1cc(Nc2ncnc(-c3cccnc3Nc3c(Cl)c(OC)cc(OC)c3Cl)n2)cn1 . Is its IC50 below 300 nM?
Ans: false

Q: IC50 under 300 nM? Item: COc1cc(OC)c(Cl)c(Nc2ncccc2-c2ncnc(Nc3cnn(CCCN(C)C)c3)n2)c1Cl
Ans: false

Q: Please determine if CCN1CCN(c2ccc(Nc3cc(-c4cccnc4Nc4c(Cl)c(OC)cc(OC)c4Cl)ncn3)cc2)CC1 is below 300 nM in terms of IC50.
Ans: false

###

system: BaF3; experiment: Antiproliferative activity against mouse BaF3 cells harboring TEL-FGFR3 assessed as cell growth inhibition by CellTiter-Glo assay; type: functional
Task for the reader: assign each of the following compounds its reported GI50.
Just the number please, in nM, no unit attached.

The recorded GI50 for COc1cc(OC)c(Cl)c(Nc2ncccc2-c2ncnc(Nc3cnn(C4CCN(C(C)C)CC4)c3)n2)c1Cl is 5

CCN1CCN(c2ccc(Nc3cc(N(C)C(=O)Nc4c(Cl)c(OC)cc(OC)c4Cl)ncn3)cc2)CC1 has a reported GI50 of 5

// GI50 value for COc1cc(N2C[C@@H](C)N[C@@H](C)C2)ccc1Nc1ncnc(-c2cccnc2Nc2c(Cl)c(OC)cc(OC)c2Cl)n1 : 286

According to the records, this compound COc1cc(OC)c(Cl)c(Nc2ncccc2-c2ncnc(Nc3ccc(N4C[C@@H](C)N[C@@H](C)C4)cc3)n2)c1Cl displays GI50 of 5

Notebook: C=CCn1cc(Nc2ncnc(-c3cccnc3Nc3c(Cl)c(OC)cc(OC)c3Cl)n2)cn1 , GI50 read as 10

Input COc1cc(OC)c(Cl)c(Nc2ncccc2-c2ncnc(Nc3ccccc3)n2)c1Cl . Output GI50: 16

// COc1cccc(Nc2ncnc(-c3cccnc3Nc3c(Cl)c(OC)cc(OC)c3Cl)n2)c1 : GI50 value = 30

Data origin, for the record: ChEMBL document CHEMBL5131515
